Source of measurements: ChEMBL document CHEMBL1146117

Tested on: A2780
Assay: Antiproliferative activity against human A2780 cells
Assay type: functional, cell-based
Property measured: log10 of IC50 (log10 of the value in µM)

* Cc1ccc2c(c1C)CN(C(=O)N(C)CCCN(C)C)CC2c1ccccc1 (stereo not drawn) | 0.08
* Cc1ccc2c(c1C)CN(CCCCN)CC2c1ccccc1 (stereo not drawn) | 0.37
* Cc1ccc2c(c1C)CN(C(=O)N1CCCCC1)CC2c1ccccc1 (stereo not drawn) | 0.45
* Cc1ccc2c(c1C)CN(C)CC2c1ccccc1 (stereo not drawn) | 0.86
* Cc1ccc2c(c1C)CN(CCN)CC2c1ccccc1 (stereo not drawn) | 0.36
* CN(C)C(=O)N1Cc2c(ccc3c2OCC3)C(c2cccc(O)c2)C1 (stereo not drawn) | -0.63
* CCN1Cc2c(ccc(C)c2C)C(c2ccccc2)C1 (stereo not drawn) | 0.72
* CN(C)C(=O)N1Cc2cc(Br)ccc2C(c2cccc(O)c2)C1 (stereo not drawn) | -0.06
* CN(C)C(=O)N1Cc2cc(I)ccc2C(c2cccc(O)c2)C1 (stereo not drawn) | -0.44
* CN(C)C(=O)N1Cc2c(ccc(Cl)c2Cl)C(c2cccc(O)c2)C1 (stereo not drawn) | 0.54
* Cc1ccc2c(c1C)CN(CCCN(C)C)CC2c1ccccc1 (stereo not drawn) | 0.51
* Cc1ccc2c(c1C)CN(C(=O)N(C)C)CC2c1cccc(O)c1 (stereo not drawn) | -0.42
* Cc1ccc2c(c1C)CN(C(=O)N(C)C)C[C@@H]2c1cccc(O)c1 | -0.63
